Can you tell me IC50 for the items I'm about to list?
target: human KHK-A (Homo sapiens (Human), UniProt P50053); assay: KHK Biochemical Assay (IC50), ADP-Glo, KHK-A; conditions: ADP-Glo; average of at least two separate assays
Sequence (P50053 other isoform, or with tags, fused parts or gaps): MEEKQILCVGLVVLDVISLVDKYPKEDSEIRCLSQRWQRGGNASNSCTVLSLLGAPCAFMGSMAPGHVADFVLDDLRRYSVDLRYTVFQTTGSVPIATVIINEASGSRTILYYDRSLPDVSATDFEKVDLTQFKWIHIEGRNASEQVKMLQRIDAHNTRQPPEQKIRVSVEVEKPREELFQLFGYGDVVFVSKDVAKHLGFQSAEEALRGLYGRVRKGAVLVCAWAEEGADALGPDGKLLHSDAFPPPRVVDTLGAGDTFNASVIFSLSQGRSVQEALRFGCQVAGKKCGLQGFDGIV
Answers are plain numbers, in nM.

{"columns": ["compound", "value measured"],
 "data": [
  ["C[C@H]1CCN1c1nc2c(c(-c3ccc4c(c3)C3(CC3)C(=O)NC4=O)n1)CCC2", 10.9],
  ["C[C@H]1CCN1c1nc2c(c(-c3ccc4ccc(C(=O)O)cc4c3)n1)CCC2", 46.1]
]}

For each of the items listed, what is its IC50?
1. C[C@H]1CCN1c1nc2c(c(-c3ccc4c(c3)CCNC4C(F)(F)F)n1)CCC2 (stereo partly shown)
2. C[C@H]1CCN1c1nc2c(c(-c3cccc(C4(C(N)=O)CC4)c3)n1)CCC2

1. 434
2. 600
